- Tested Target: human P2Y2 receptor (Homo sapiens)
- Sequence (P41231 whole entry): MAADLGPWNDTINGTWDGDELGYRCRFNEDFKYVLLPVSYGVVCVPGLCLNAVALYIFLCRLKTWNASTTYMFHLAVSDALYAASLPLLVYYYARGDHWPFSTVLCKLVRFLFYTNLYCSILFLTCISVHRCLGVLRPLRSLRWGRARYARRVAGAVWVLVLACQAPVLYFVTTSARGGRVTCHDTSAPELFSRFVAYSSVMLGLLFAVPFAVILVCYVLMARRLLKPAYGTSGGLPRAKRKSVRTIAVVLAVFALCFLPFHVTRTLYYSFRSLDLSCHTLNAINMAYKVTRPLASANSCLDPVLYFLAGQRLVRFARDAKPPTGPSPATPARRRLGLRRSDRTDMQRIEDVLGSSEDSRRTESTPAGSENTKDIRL
- Assay Explanation: Fluo-3 calcium mobilization, FLIPR, […]1 cells
Recorded Endpoint: log10(EC50) (log10 of the value in nM)
Base-10 log of EC50, unit nM.

Enquiry: Quick one: log10(EC50) of Nc1ncnc2c1ncn2[C@@H]1O[C@H](COP(=O)(O)OP(=O)(O)OP(=O)(O)OC[C@H]2O[C@@H](n3ccc(=O)[nH]c3=O)[C@H](O)[C@@H]2O)[C@@H](O)[C@H]1O [compound 26, AP3U] ?
Return: 3.30

Enquiry: Quick one: log10(EC50) of Cc1cn([C@H]2C[C@H](O)[C@@H](COP(=O)(O)OP(=O)(O)OP(=O)(O)OP(=O)(O)OC[C@H]3O[C@@H](n4ccc(=O)[nH]c4=O)[C@H](O)[C@@H]3O)O2)c(=O)[nH]c1=O [compound 46, UP4T] ?
Return: 2.26

Enquiry: Quick one: log10(EC50) of Nc1ncnc2c1ncn2[C@@H]1O[C@H](COP(=O)(O)OP(=O)(O)OP(=O)(O)OP(=O)(O)OC[C@H]2O[C@@H](n3ccc(=O)[nH]c3=O)[C@H](O)[C@@H]2O)[C@@H](O)[C@H]1O [compound 40, AP4U] ?
Return: 2.54

Enquiry: Quick one: log10(EC50) of O=c1ccn([C@@H]2O[C@H](COP(=O)(O)OP(=O)(O)OP(=O)(O)OP(=O)(O)OC[C@H]3O[C@@H](n4cnc5c(=O)[nH]cnc54)C[C@@H]3O)[C@@H](O)[C@H]2O)c(=O)[nH]1 [compound 48, UP4dI] ?
Return: 2.36

Enquiry: Quick one: log10(EC50) of Nc1ncnc2c1ncn2[C@H]1C[C@H](O)[C@@H](COP(=O)(O)OP(=O)(O)OP(=O)(O)OP(=O)(O)OC[C@H]2O[C@@H](n3ccc(=O)[nH]c3=O)[C@H](O)[C@@H]2O)O1 [compound 52, UP4dA] ?
Return: 1.70

====

- Tested Target: human P2Y6 receptor (Homo sapiens, UniProt Q15077)
- Sequence (Q15077 whole entry): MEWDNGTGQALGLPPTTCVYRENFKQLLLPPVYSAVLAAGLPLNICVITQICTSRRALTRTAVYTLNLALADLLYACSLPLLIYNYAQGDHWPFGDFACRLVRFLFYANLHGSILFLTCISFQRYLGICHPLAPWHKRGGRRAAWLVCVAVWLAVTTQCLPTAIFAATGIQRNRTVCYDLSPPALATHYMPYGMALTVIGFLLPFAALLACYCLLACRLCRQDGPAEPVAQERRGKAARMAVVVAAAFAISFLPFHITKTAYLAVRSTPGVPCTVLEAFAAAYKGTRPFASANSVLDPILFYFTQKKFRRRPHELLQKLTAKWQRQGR
- Assay Explanation: Fluo-3 calcium mobilization, FLIPR, […]1 cells
- Assay type: cell-based
For each entry below, report its pEC50 value.
pEC50 is defined as minus the log10 of a concentration measured in mol/L.

Enquiry: So what pEC50 did Nc1ncnc2c1ncn2[C@@H]1O[C@H](COP(=O)(O)OP(=O)(O)OP(=O)(O)OC[C@H]2O[C@@H](n3ccc(=O)[nH]c3=O)[C@H](O)[C@@H]2O)[C@@H](O)[C@H]1O get with human P2Y6 receptor (Homo sapiens, UniProt Q15077)?
Return: 6.77

Enquiry: So what pEC50 did Nc1nc2c(ncn2[C@H]2C[C@H](O)[C@@H](COP(=O)(O)OP(=O)(O)OP(=O)(O)OP(=O)(O)OC[C@H]3O[C@@H](n4ccc(=O)[nH]c4=O)[C@H](O)[C@@H]3O)O2)c(=O)[nH]1 get with human P2Y6 receptor (Homo sapiens, UniProt Q15077)?
Return: 5.77

Enquiry: So what pEC50 did O=c1[nH]c(=S)ccn1[C@@H]1O[C@H](COP(=O)(O)OP(=O)(O)OP(=O)(O)OP(=O)(O)OC[C@H]2O[C@@H](n3ccc(=S)[nH]c3=O)[C@H](O)[C@@H]2O)[C@@H](O)[C@H]1O get with human P2Y6 receptor (Homo sapiens, UniProt Q15077)?
Return: 5.17

Enquiry: So what pEC50 did Nc1ccn([C@@H]2O[C@H](COP(=O)(O)OP(=O)(O)OP(=O)(O)OC[C@H]3O[C@@H](n4ccc(=O)[nH]c4=O)[C@H](O)[C@@H]3O)[C@@H](O)[C@H]2O)c(=O)n1 get with human P2Y6 receptor (Homo sapiens, UniProt Q15077)?
Return: 6.28

Enquiry: So what pEC50 did O=c1ccn([C@@H]2O[C@H](COP(=O)(O)OP(=O)(O)OC[C@H]3O[C@@H](n4ccc(=O)[nH]c4=O)[C@H](O)[C@@H]3O)[C@@H](O)[C@H]2O)c(=O)[nH]1 get with human P2Y6 receptor (Homo sapiens, UniProt Q15077)?
Return: 4.48

Enquiry: So what pEC50 did Nc1nc2c(ncn2[C@@H]2O[C@H](COP(=O)(O)OP(=O)(O)OP(=O)(O)OC[C@H]3O[C@@H](n4cnc5c(N)ncnc54)[C@H](O)[C@@H]3O)[C@@H](O)[C@H]2O)c(=O)[nH]1 get with human P2Y6 receptor (Homo sapiens, UniProt Q15077)?
Return: 5.82

Enquiry: So what pEC50 did O=c1ccn([C@@H]2O[C@H](COP(=O)(O)OP(=O)(O)OP(=O)(O)OP(=O)(O)OC[C@H]3O[C@@H](n4ccc(=S)[nH]c4=O)[C@H](O)[C@@H]3O)[C@@H](O)[C@H]2O)c(=O)[nH]1 get with human P2Y6 receptor (Homo sapiens, UniProt Q15077)?
Return: 3.72

Enquiry: So what pEC50 did Nc1nc2c(ncn2[C@@H]2O[C@H](COP(=O)(O)OP(=O)(O)OP(=O)(O)OC[C@H]3O[C@@H](n4ccc(=O)[nH]c4=O)[C@H](O)[C@@H]3O)[C@@H](O)[C@H]2O)c(=O)[nH]1 get with human P2Y6 receptor (Homo sapiens, UniProt Q15077)?
Return: 6.42

Enquiry: So what pEC50 did Nc1ccn([C@@H]2O[C@H](COP(=O)(O)OP(=O)(O)OC[C@H]3O[C@@H](n4cnc5c(N)ncnc54)[C@H](O)[C@@H]3O)[C@@H](O)[C@H]2O)c(=O)n1 get with human P2Y6 receptor (Homo sapiens, UniProt Q15077)?
Return: 4.73

Enquiry: So what pEC50 did Nc1ccn([C@@H]2O[C@H](COP(=O)(O)OP(=O)(O)OP(=O)(O)OP(=O)(O)OC[C@H]3O[C@@H](n4ccc(=S)[nH]c4=O)[C@H](O)[C@@H]3O)[C@@H](O)[C@H]2O)c(=O)n1 get with human P2Y6 receptor (Homo sapiens, UniProt Q15077)?
Return: 5.28

Enquiry: So what pEC50 did Nc1nc2c(ncn2[C@H]2C[C@H](O)[C@@H](COP(=O)(O)OP(=O)(O)OP(=O)(O)OC[C@H]3O[C@@H](n4ccc(=O)[nH]c4=O)[C@H](O)[C@@H]3O)O2)c(=O)[nH]1 get with human P2Y6 receptor (Homo sapiens, UniProt Q15077)?
Return: 6.55

Enquiry: So what pEC50 did Nc1ccn([C@@H]2O[C@H](COP(=O)(O)OP(=O)(O)OP(=O)(O)OC[C@H]3O[C@@H](n4ccc(=O)[nH]c4=O)C[C@@H]3O)[C@@H](O)[C@H]2O)c(=O)n1 get with human P2Y6 receptor (Homo sapiens, UniProt Q15077)?
Return: 6.09

Enquiry: So what pEC50 did Nc1nc2c(ncn2[C@@H]2O[C@H](COP(=O)(O)OP(=O)(O)OC[C@H]3O[C@@H](n4ccc(=O)[nH]c4=O)[C@H](O)[C@@H]3O)[C@@H](O)[C@H]2O)c(=O)[nH]1 get with human P2Y6 receptor (Homo sapiens, UniProt Q15077)?
Return: 5.12

Enquiry: So what pEC50 did Nc1ncnc2c1ncn2[C@@H]1O[C@H](COP(=O)(O)OP(=O)(O)OP(=O)(O)OC[C@H]2O[C@@H](n3cnc4c(=O)[nH]cnc43)[C@H](O)[C@@H]2O)[C@@H](O)[C@H]1O get with human P2Y6 receptor (Homo sapiens, UniProt Q15077)?
Return: 5.97

Enquiry: So what pEC50 did Nc1ncnc2c1ncn2[C@H]1C[C@H](O)[C@@H](COP(=O)(O)OP(=O)(O)OP(=O)(O)OP(=O)(O)OC[C@H]2O[C@@H](n3ccc(=O)[nH]c3=O)[C@H](O)[C@@H]2O)O1 get with human P2Y6 receptor (Homo sapiens, UniProt Q15077)?
Return: 5.38
